biological target: batrachotoxin receptors in the synaptosome from the rat brain (sodium channel); experiment: Inhibition of the binding of batrachotoxin to receptors in rat brain synaptosome; conditions: 1.5 nM tritiated batrachotoxin A20-alfa-benzoate, 100 μM veratridine, 37° C., 30 minutes
pIC50: −log10 of the molar value.
Tag: Yes if measured pIC50 is not below 6, No if it is.

Could you verify whether the entry CC(C)Oc1ccc(N(C)CCC2(O)CCN(CCc3ccc(F)cc3)CC2)cc1.Cl.Cl [Example 55, dihydrochloride] shows pIC50 of no less than 6?
Yes

Would you kindly repeat that for Cc1cccc(C)c1OCC(C)N (stereo not drawn) [mexiletine, reference compound] ?
No

Would you kindly repeat that for CC(C)Oc1ccc(N(C)CCC2(O)CCN(CCc3ccccc3)CC2)cc1.Cl.Cl [Example 50, dihydrochloride] ?
Yes

Would you kindly repeat that for NC(=O)N1c2ccccc2C=Cc2ccccc21 [carbamazepine, reference compound] ?
No

Would you kindly repeat that for O=C1NC(=O)C(c2ccccc2)(c2ccccc2)N1 [phenytoin, reference compound] ?
No

Would you kindly repeat that for CC(C)Oc1ccc(N(C)CCC2(O)CCN(CCc3ccc(C#N)cc3)CC2)cc1.Cl.Cl [Example 51, dihydrochloride] ?
Yes
